Assay: protein stability index of a GFP-peptide fusion (yeast GPS) (PSI 1-4); higher = more stable; sorted into four equal gates, so the index is relative within each strain
Settings: pdr5∆
Measurement label: protein stability index
// no unit string in output, number only

Take a look at these entries with their results.
{"Sequence content": "NDRKQTTVSNDLENSPL [SSN2]", "protein stability index": 3.11}
{"Sequence content": "PAGQATQKRTHVLKKNP [RPL4A]", "protein stability index": 3.21}
{"Sequence content": "DEAKEKQLVEKAELRLA [ECM29]", "protein stability index": 3.26}
{"Sequence content": "RYFFWLQEKNSGNLPLN [RPN13]", "protein stability index": 3}

*Q* Name the reported protein stability index value associated with the sequence DVQVDAEEKREAVIDEK [ITC1]
*A* 2.32

*Q* Give the measured protein stability index of HFVQEEPLAFYLEESFT [RGR1] .
*A* 2.43

*Q* Give its protein stability index value. Item: VTFIFGELKRGNESVKP [MED11]
*A* 3.12

*Q* Look up protein stability index: HALYLAPSGIRMHLAPA [SSN2]
*A* 2.05

*Q* Param item = MGKSHGYRSRTRYMFQR [RPL21A] ; retrieve measured protein stability index.
*A* 3.25

*Q* Which value of protein stability index has been reported for LTSDLVYFGDENKVMLP [RRI2] in the records?
*A* 3.34

*Q* Given HGMTLRESFEDNVVRFL [RPO21] , state its recorded protein stability index.
*A* 3.09

*Q* Query (sequence): YISFIKDDRFVPVRKFK [RPN2] ; field requested: protein stability index
*A* 2.82

*Q* Need protein stability index, item QAVETVGQAGRPKKITG [RPN1]
*A* 2.74

*Q* // query protein stability index value for entry APPLENENSNCLLSIPK [YML103C/NUP188]
*A* 1.92

*Q* I would be grateful if you could share the reported protein stability index for GVTSLIKNLGLPSDRCS [RPP1] .
*A* 2.26

*Q* Given the entry AARKAEKAKSAGTQSSK [RPL24A] , report its measured protein stability index.
*A* 3.11

*Q* Fill in: protein stability index of DTNSSKPKNTKENLSKS [SIR4] is ___
*A* 1.56

*Q* For AMSLYHSPFPFNRTKGK [PRP8] , what is its reported protein stability index?
*A* 2.08

*Q* # query: protein stability index of entry PYAQKPLQGIFHNAVFN [QCR8]
*A* 2.52
